Listed compounds paired with reported TC50
# Test system: MAGI cell cytotoxicity, 2% serum
# METHOD: MAGI cell cytotoxicity, X4 antiviral format, dose response, cytotoxicity control for HIV-1 antiviral lead project, CXCR4-tropic MAGI assay, 2% serum, set 2 (AID 504575)
PARAMETER: TC50

ENTRY_SMILES | PARAMETER | OBSERVED_MEASUREMENT
COc1ccc(CCn2c(O)cc3nn(-c4nc5ccccc5s4)c(=O)c-3c2C)cc1 | TC50 | 13.8 µM
Cc1c2c(=O)n(-c3nc4ccccc4s3)nc-2cc(O)n1CCC(C)C | TC50 | 65 µM
COc1ccccc1Cn1c(O)cc2nn(-c3nc4ccccc4s3)c(=O)c-2c1C | TC50 | 43.2 µM
Cc1c2c(=O)n(-c3nc4ccccc4s3)nc-2cc(O)n1CCc1cccs1 | TC50 | 74.8 µM
Cc1c2c(=O)n(-c3nc4ccccc4s3)nc-2cc(O)n1Cc1ccccc1Cl | TC50 | 32.9 µM
Cc1c2c(=O)n(-c3nc4ccccc4s3)nc-2cc(O)n1CCc1ccc(O)cc1 | TC50 | 20.5 µM
COc1ccc(Cn2c(O)cc3nn(-c4nc5ccccc5s4)c(=O)c-3c2C)cc1 | TC50 | 41.1 µM
